Assign abundance fitness to each entry below.
B1: Gamma-crystallin S, residues 96 to 176; numbered along this chain, P22914 (parent)
chain: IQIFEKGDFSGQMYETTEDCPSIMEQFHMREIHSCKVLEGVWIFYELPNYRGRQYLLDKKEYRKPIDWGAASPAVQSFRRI

# Variants of: B1
# measurementNotes: abundance fitness (aPCA) (normalised: wild type 0, dead -1); higher = more abundant; growth selection in yeast, the domain comes from the species named
# measurementContext: Homo sapiens

These solved cases illustrate the format of a correct answer.
>>> result("T17I")
0.037
>>> result("I3A")
-0.141
>>> result("V41F")
-0.001
>>> result("Y14K")
-0.009
>>> result("K59T")
0.089
>>> result("P73E")
-0.215

# per-item lookup of abundance fitness; items listed below
1. C35A
2. L56S
3. D67G
4. L57K
5. Q54I
6. W68K
7. F9H

Result:
1: -0.027; 2: -0.031; 3: -0.098; 4: -0.414; 5: -0.045; 6: -0.067; 7: 0.067
